Biological target: Cannabinoid receptor 1 (Homo sapiens)
Sequence (P21554 whole entry): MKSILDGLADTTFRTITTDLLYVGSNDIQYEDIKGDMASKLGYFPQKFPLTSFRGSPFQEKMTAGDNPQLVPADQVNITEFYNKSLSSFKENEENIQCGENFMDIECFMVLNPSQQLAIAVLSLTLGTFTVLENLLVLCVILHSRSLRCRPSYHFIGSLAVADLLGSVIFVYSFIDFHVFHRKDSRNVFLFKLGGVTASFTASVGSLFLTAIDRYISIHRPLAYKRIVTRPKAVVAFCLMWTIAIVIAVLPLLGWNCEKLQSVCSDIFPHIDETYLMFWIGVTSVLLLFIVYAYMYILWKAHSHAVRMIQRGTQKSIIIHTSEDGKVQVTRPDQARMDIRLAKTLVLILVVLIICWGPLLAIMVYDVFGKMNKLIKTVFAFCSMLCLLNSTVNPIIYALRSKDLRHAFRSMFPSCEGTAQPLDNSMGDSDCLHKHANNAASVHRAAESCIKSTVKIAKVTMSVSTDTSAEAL
Assay: Displacement of [3H]-CP55940 from human recombinant CB1 receptor expressed in CHO-K1 cell membrane at 1 uM measured after 3 hrs by scintillation spectrometry
Assay type: cell membranes
Settings: filed as agonist

{"columns": ["Smiles Representation", "Limit Qualifier", "inhibition (%)"],
 "data": [
  ["CCCCCCC(C)(C)c1cc(O)c2cc(Cc3ccccc3O)c(=O)oc2c1", ">", 50],
  ["CCCCC1(c2cc(OC)c3cc(Cc4ccccn4)c(=O)oc3c2)CCCCC1", "=", 47],
  ["CCCCc1cc2c(O)cc(C3(CCCC)CCCC3)cc2oc1=O", "=", 50],
  ["CCCCC(C)(C)c1cc(OC)c2cc(Cc3ccccc3C)c(=O)oc2c1", ">", 50],
  ["CCCCCCC(C)(C)c1cc(O)c2cc(Cc3ccccc3)c(=O)oc2c1", ">", 50],
  ["CCCCC(C)(C)c1cc(OC)c2cc(Cc3ccccc3OC)c(=O)oc2c1", ">", 50],
  ["CCCCCCC(C)(C)c1cc(OC)c2cc(Cc3ccccc3OC)c(=O)oc2c1", ">", 50],
  ["CCCCC(C)(C)c1cc(OC)c2cc(Cc3ccccc3)c(=O)oc2c1", ">", 50],
  ["CCCCc1cc2c(O)cc(C3(CCCC)CCCCC3)cc2oc1=O", "=", 48],
  ["CCCCC1(c2cc(O)c3cc(CCC)c(=O)oc3c2)CCCC1", "=", 47]
]}

====

Target: UniProtKB P34972
Sequence (P34972 whole entry): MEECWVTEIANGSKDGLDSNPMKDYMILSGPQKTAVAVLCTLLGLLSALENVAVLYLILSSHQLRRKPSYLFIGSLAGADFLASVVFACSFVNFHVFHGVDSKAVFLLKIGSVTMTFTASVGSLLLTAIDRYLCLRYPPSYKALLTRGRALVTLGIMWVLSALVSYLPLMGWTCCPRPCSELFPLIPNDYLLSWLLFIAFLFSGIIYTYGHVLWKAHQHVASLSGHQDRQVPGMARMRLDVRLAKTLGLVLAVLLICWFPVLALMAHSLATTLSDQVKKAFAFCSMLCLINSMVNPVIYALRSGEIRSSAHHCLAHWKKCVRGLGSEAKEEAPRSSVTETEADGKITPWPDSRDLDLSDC
Experiment: Displacement of [3H]-CP55940 from human recombinant CB2 receptor expressed in CHO-K1 cell membrane at 1 uM measured after 3 hrs by scintillation spectrometry
Format: cell membranes
In this section, each of the compounds is paired with its reported inhibition.

{"columns": ["Smiles Representation", "inhibition, %"],
 "data": [
  ["CCCCCCC(C)(C)c1cc(OC)c2cc(Cc3ccccc3C(F)(F)F)c(=O)oc2c1", 3],
  ["CCCCC1(c2cc(OC)c3cc(-c4ccc(C(F)(F)F)cc4)c(=O)oc3c2)CCCC1", -4],
  ["CCCCC1(c2cc(OC)c3cc(Cc4ccncc4)c(=O)oc3c2)CCCCC1", 3],
  ["CCCCC1(c2cc(O)c3cc(Cc4ccncc4)c(=O)oc3c2)CCCC1", 21],
  ["CCCCC1(c2cc(O)c3cc(-c4ccc(C(F)(F)F)cc4)c(=O)oc3c2)CCCC1", -10]
]}

====

Molecular target: Cannabinoid receptor 1 (Homo sapiens)
Test: Displacement of [3H]-CP55940 from human recombinant CB1 receptor expressed in CHO-K1 cell membrane at 1 uM measured after 3 hrs by scintillation spectrometry
Type: cell membranes
In this section, each of the molecules is paired with its reported inhibition.
Endpoint: inhibition (%)

{"columns": ["Smiles Representation", "Tgt", "Reported Value"],
 "data": [
  ["CCCCC1(c2cc(O)c3cc(Cc4cccnc4)c(=O)oc3c2)CCCC1", "Cannabinoid receptor 1 (Homo sapiens)", 19],
  ["CCCCC(C)(C)c1cc(O)c2cc(Cc3ccccc3O)c(=O)oc2c1", "Cannabinoid receptor 1 (Homo sapiens)", 24],
  ["CCCCc1cc2c(OC)cc(C3(CCCC)CCCC3)cc2oc1=O", "Cannabinoid receptor 1 (Homo sapiens)", 15],
  ["CCCCC1(c2cc(OC)c3cc(-c4ccccc4OC)c(=O)oc3c2)CCCC1", "Cannabinoid receptor 1 (Homo sapiens)", -10],
  ["CCCCC1(c2cc(OC)c3cc(Cc4cccnc4)c(=O)oc3c2)CCCCC1", "Cannabinoid receptor 1 (Homo sapiens)", 6],
  ["CCCCC1(c2cc(OC)c3cc(-c4ccc(C(F)(F)F)cc4)c(=O)oc3c2)CCCC1", "Cannabinoid receptor 1 (Homo sapiens)", 3],
  ["CCCCC1(c2cc(O)c3cc(-c4ccccc4C)c(=O)oc3c2)CCCC1", "Cannabinoid receptor 1 (Homo sapiens)", 4],
  ["CCCCC1(c2cc(OC)c3cc(CC)c(=O)oc3c2)CCCCC1", "Cannabinoid receptor 1 (Homo sapiens)", 6],
  ["CCCCC(C)(C)c1cc(O)c2cc(Cc3ccccc3C)c(=O)oc2c1", "Cannabinoid receptor 1 (Homo sapiens)", 30],
  ["CCCCCc1cc(OC)c2cc(Cc3ccncc3)c(=O)oc2c1", "Cannabinoid receptor 1 (Homo sapiens)", 0]
]}
